# TESTED_TARGET: PADI4 (Homo sapiens)
# Construct: His6; made in house
# EXPERIMENTAL_DETAILS: COLDER inhibition assay, BAEE substrate, with or without 1 h preincubation
# Format: biochemical
# CONDITION_NOTES: COLDER, 1 h preincubation of peptide and PADI4, 10 mM CaCl2; read-out: IC50 Values 1 h preincubation
Where a SMILES comes first, the peptide text is derived from it. Bridges are numbered along the chain shown (N, C = ends). [ ]: non-standard residue; d: D form. Orn(fluoroacetimidoyl) = N=C(CF)NCCC[C@H](N)C(=O)O
PROPERTY_MEASURED: IC50 (nM)

MOLECULE | PROPERTY_MEASURED | VALUE_OBSERVED
CC(C)[C@@H]1NC(=O)[C@@H](Cc2ccc(O)cc2)NC(=O)CSC[C@@H](C(=O)NCC(N)=O)NC(=O)[C@H](Cc2ccc(O)cc2)NC(=O)[C@H](CCCCN)NC(=O)[C@H](Cc2c[nH]c3ccccc23)NC(=O)[C@H](CCC(=O)O)NC(=O)[C@H](CCCCN)NC(=O)[C@H](CCCNC(=N)CF)NC(=O)[C@H](CO)NC(=O)[C@H](Cc2ccc(O)cc2)NC1=O [cP4_7, yVYS(2)KEWKYCG] ({CH2CO}-[dY]VYS[Orn(fluoroacetimidoyl)]KEWKYCG-NH2; thioether N-11) | IC50 | 160
CC[C@H](C)[C@@H]1NC(=O)[C@H](CCCNC(=N)N)NC(=O)[C@H](Cc2ccc(O)cc2)NC(=O)[C@H](CCCNC(=N)N)NC(=O)[C@H](CCC(=O)O)NC(=O)[C@H](CCCNC(=N)CF)NC(=O)[C@H](CC(N)=O)NC(=O)[C@H](CC(C)C)NC(=O)[C@@H](Cc2ccc(O)cc2)NC(=O)CSC[C@@H](C(=O)NCC(N)=O)NC(=O)[C@H](CO)NC1=O [cP4_18] ({CH2CO}-[dY]LN[Orn(fluoroacetimidoyl)]ERYRISCG-NH2; thioether N-11) | IC50 | 180

###

Measured remaining activity at 0.01 µM by item
# TESTED_TARGET: PADI4 (Homo sapiens, UniProt Q9UM07)
# Construct: His6; made in house
# Sequence (Q9UM07 whole entry): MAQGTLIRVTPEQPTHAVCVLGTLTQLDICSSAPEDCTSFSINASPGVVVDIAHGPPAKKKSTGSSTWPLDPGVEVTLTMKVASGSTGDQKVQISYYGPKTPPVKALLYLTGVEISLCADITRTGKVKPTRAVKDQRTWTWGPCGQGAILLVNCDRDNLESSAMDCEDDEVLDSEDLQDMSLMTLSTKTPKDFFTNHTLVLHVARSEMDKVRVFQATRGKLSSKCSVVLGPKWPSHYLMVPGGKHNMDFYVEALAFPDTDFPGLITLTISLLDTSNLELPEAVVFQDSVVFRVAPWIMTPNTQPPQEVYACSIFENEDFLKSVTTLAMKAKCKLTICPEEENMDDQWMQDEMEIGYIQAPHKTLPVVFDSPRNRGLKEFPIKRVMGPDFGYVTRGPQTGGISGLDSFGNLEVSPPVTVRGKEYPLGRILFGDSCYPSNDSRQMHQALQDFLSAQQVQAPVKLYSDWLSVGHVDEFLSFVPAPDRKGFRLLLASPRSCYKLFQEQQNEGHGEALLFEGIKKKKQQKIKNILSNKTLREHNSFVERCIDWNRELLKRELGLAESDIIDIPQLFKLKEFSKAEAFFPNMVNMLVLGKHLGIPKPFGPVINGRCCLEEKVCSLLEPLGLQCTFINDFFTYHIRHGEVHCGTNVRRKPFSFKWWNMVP
# EXPERIMENTAL_DETAILS: COLDER inhibition assay, BAEE substrate, with or without 1 h preincubation
# Format: biochemical
# CONDITION_NOTES: peptide 0.01 µM, T=1; read-out: PADI4 activity normalised to 0.1% DMSO
Where a SMILES comes first, the peptide text is derived from it. Bridges are numbered along the chain shown (N, C = ends). [ ]: non-standard residue; d: D form. Orn(fluoroacetimidoyl) = N=C(CF)NCCC[C@H](N)C(=O)O

COMPOUND | remaining activity at 0.01 µM [%]
N=C(N)NCCC[C@@H]1NC(=O)[C@H](CCCCN)NC(=O)[C@H](CC(N)=O)NC(=O)[C@H](Cc2ccccc2)NC(=O)[C@H](CC(=O)O)NC(=O)[C@H](Cc2c[nH]c3ccccc23)NC(=O)[C@H](CC(N)=O)NC(=O)[C@H](CCCNC(=N)CF)NC(=O)[C@H](Cc2ccc(O)cc2)NC(=O)[C@H](Cc2c[nH]c3ccccc23)NC(=O)[C@@H](Cc2ccc(O)cc2)NC(=O)CSC[C@@H](C(=O)NCC(N)=O)NC1=O [cP4_10, yWY(2)NWDFNKRCG] ({CH2CO}-[dY]WY[Orn(fluoroacetimidoyl)]NWDFNKRCG-NH2; thioether N-12) | 81.1
N=C(N)NCCC[C@@H]1NC(=O)[C@H](CCCNC(=N)CF)NC(=O)[C@H](CC(=O)O)NC(=O)[C@H](Cc2ccc(O)cc2)NC(=O)[C@H](CCCCN)NC(=O)[C@H](CO)NC(=O)[C@@H](Cc2ccc(O)cc2)NC(=O)CSC[C@@H](C(=O)NCC(N)=O)NC(=O)[C@H](CC(=O)O)NC(=O)[C@H](CCCNC(=N)N)NC(=O)[C@@H]2CCCN2C(=O)[C@H](CO)NC1=O [cP4_4, ySKYD(2)RSPRDCG] ({CH2CO}-[dY]SKYD[Orn(fluoroacetimidoyl)]RSPRDCG-NH2; thioether N-12) | 86.9

###

Measured remaining activity at 0.3 µM by item
# TESTED_TARGET: PADI4 (Homo sapiens, UniProt Q9UM07)
# Construct: His6; made in house
# EXPERIMENTAL_DETAILS: COLDER inhibition assay, BAEE substrate, with or without 1 h preincubation
# Format: biochemical
# CONDITION_NOTES: peptide 0.3 µM; no preincubation; read-out: PADI4 activity, normalised (Figure 4b dose-response)
*1 amine or outer side, *2 acyl side, *3 side chain or, on linkers, in order; H or OH if unused. Where a SMILES comes first, the peptide text is derived from it. Bridges are numbered along the chain shown (N, C = ends). [ ]: non-standard residue; d: D form. Orn(acetimidoyl) = CC(=N)NCCC[C@H](N)C(=O)O; X1 = N=C(CCl)NCCC[C@H](N[*:1])C(=O)[*:2]; Cit = NC(=O)NCCC[C@H](N)C(=O)O

COMPOUND | remaining activity at 0.3 µM (%)
N=C(N)NCCC[C@@H]1NC(=O)[C@H](CC(=O)O)NC(=O)[C@H](Cc2ccc(O)cc2)NC(=O)[C@H](CCCCN)NC(=O)[C@H](CO)NC(=O)[C@@H](Cc2ccc(O)cc2)NC(=O)CSC[C@@H](C(=O)NCC(N)=O)NC(=O)[C@H](CC(=O)O)NC(=O)[C@H](CCCNC(=N)N)NC(=O)[C@@H]2CCCN2C(=O)[C@H](CO)NC(=O)[C@H](CCCNC(=N)N)NC1=O [Arg4] ({CH2CO}-[dY]SKYDRRSPRDCG-NH2; thioether N-12) | 101
N=C(N)NCCC[C@@H]1NC(=O)[C@H](CCCNC(=N)CCl)NC(=O)[C@H](CC(=O)O)NC(=O)[C@H](Cc2ccc(O)cc2)NC(=O)[C@H](CCCCN)NC(=O)[C@H](CO)NC(=O)[C@@H](Cc2ccc(O)cc2)NC(=O)CSC[C@@H](C(=O)NCC(N)=O)NC(=O)[C@H](CC(=O)O)NC(=O)[C@H](CCCNC(=N)N)NC(=O)[C@@H]2CCCN2C(=O)[C@H](CO)NC1=O [Cl4] ({CH2CO}-[dY]SKYD[X1]RSPRDCG-NH2; thioether N-12) | 86.6
N=C(N)NCCC[C@@H]1NC(=O)[C@H](CCCNC(N)=O)NC(=O)[C@H](CC(=O)O)NC(=O)[C@H](Cc2ccc(O)cc2)NC(=O)[C@H](CCCCN)NC(=O)[C@H](CO)NC(=O)[C@@H](Cc2ccc(O)cc2)NC(=O)CSC[C@@H](C(=O)NCC(N)=O)NC(=O)[C@H](CC(=O)O)NC(=O)[C@H](CCCNC(=N)N)NC(=O)[C@@H]2CCCN2C(=O)[C@H](CO)NC1=O [Cit4] ({CH2CO}-[dY]SKYD[Cit]RSPRDCG-NH2; thioether N-12) | 103
CC(=N)NCCC[C@@H]1NC(=O)[C@H](CC(=O)O)NC(=O)[C@H](Cc2ccc(O)cc2)NC(=O)[C@H](CCCCN)NC(=O)[C@H](CO)NC(=O)[C@@H](Cc2ccc(O)cc2)NC(=O)CSC[C@@H](C(=O)NCC(N)=O)NC(=O)[C@H](CC(=O)O)NC(=O)[C@H](CCCNC(=N)N)NC(=O)[C@@H]2CCCN2C(=O)[C@H](CO)NC(=O)[C@H](CCCNC(=N)N)NC1=O [Me4] ({CH2CO}-[dY]SKYD[Orn(acetimidoyl)]RSPRDCG-NH2; thioether N-12) | 93.7

###

Measured kinact/KI by item
# TESTED_TARGET: PADI4 (Homo sapiens)
# Construct: His6; made in house
# EXPERIMENTAL_DETAILS: Incubation time-dependent COLDER assay IC50(t), Krippendorff fit
# Type: biochemical
# Method: To determine KI and kinact of covalent peptide inhibitors, COLDER assays were used[52]. Peptide dilutions were prepared using 5-fold dilutions from 500 µM and 300 µM to 0.8 µM and 2.4 µM, respectively, at 1% DMSO in COLDER buffer (50 mM HEPES, 150 mM NaCl and 2 mM DTT, pH 7.5). […] Samples were incubated for 20 min at 95 °C before measuring absorbance at 540 nm on a CLARIOstar Plus (BMG LABTECH). IC50 values for each time point were determined using non-linear regression with GraphPad Prism. […]
Where a SMILES comes first, the peptide text is derived from it. Bridges are numbered along the chain shown (N, C = ends). [ ]: non-standard residue; d: D form. Orn(fluoroacetimidoyl) = N=C(CF)NCCC[C@H](N)C(=O)O
PROPERTY_MEASURED: kinact/KI (M⁻¹ s⁻¹)

COMPOUND | RESULT_UNIT | VALUE_OBSERVED
N=C(N)NCCC[C@@H]1NC(=O)[C@H](CCCCN)NC(=O)[C@H](CC(N)=O)NC(=O)[C@H](Cc2ccccc2)NC(=O)[C@H](CC(=O)O)NC(=O)[C@H](Cc2c[nH]c3ccccc23)NC(=O)[C@H](CC(N)=O)NC(=O)[C@H](CCCNC(=N)CF)NC(=O)[C@H](Cc2ccc(O)cc2)NC(=O)[C@H](Cc2c[nH]c3ccccc23)NC(=O)[C@@H](Cc2ccc(O)cc2)NC(=O)CSC[C@@H](C(=O)NCC(N)=O)NC1=O [cP4_10, yWY(2)NWDFNKRCG] ({CH2CO}-[dY]WY[Orn(fluoroacetimidoyl)]NWDFNKRCG-NH2; thioether N-12) | M⁻¹ s⁻¹ | 1450
N=C(N)NCCC[C@@H]1NC(=O)[C@H](CCCNC(=N)CF)NC(=O)[C@H](CC(=O)O)NC(=O)[C@H](Cc2ccc(O)cc2)NC(=O)[C@H](CCCCN)NC(=O)[C@H](CO)NC(=O)[C@@H](Cc2ccc(O)cc2)NC(=O)CSC[C@@H](C(=O)NCC(N)=O)NC(=O)[C@H](CC(=O)O)NC(=O)[C@H](CCCNC(=N)N)NC(=O)[C@@H]2CCCN2C(=O)[C@H](CO)NC1=O [cP4_4, ySKYD(2)RSPRDCG] ({CH2CO}-[dY]SKYD[Orn(fluoroacetimidoyl)]RSPRDCG-NH2; thioether N-12) | M⁻¹ s⁻¹ | 1230
CC[C@H](C)[C@H](NC(=O)[C@H](Cc1c[nH]c2ccccc12)NC(=O)[C@H](CCC(=O)O)NC(=O)[C@@H]1CSCC(=O)N[C@H](Cc2ccc(O)cc2)C(=O)N[C@@H](C(C)C)C(=O)N[C@@H](Cc2ccc(O)cc2)C(=O)N[C@@H](CCCNC(=N)CF)C(=O)N[C@@H](CC(=O)O)C(=O)N1)C(=O)N[C@@H](CC(N)=O)C(=O)N[C@@H](CCCNC(=N)N)C(=O)N[C@@H](C)C(=O)NCC(N)=O [cP4_165, yVY(2)DCEWINRAG] ({CH2CO}-[dY]VY[Orn(fluoroacetimidoyl)]DCEWINRAG-NH2; thioether N-6) | M⁻¹ s⁻¹ | 283
N=C(N)NCCC[C@@H]1NC(=O)[C@H](Cc2ccc(O)cc2)NC(=O)[C@H](Cc2c[nH]cn2)NC(=O)[C@H](CCCNC(=N)CF)NC(=O)[C@H](CC(=O)O)NC(=O)[C@H](CCCNC(=N)N)NC(=O)[C@@H](Cc2ccc(O)cc2)NC(=O)CSC[C@@H](C(=O)NCC(N)=O)NC(=O)[C@H](Cc2ccc(O)cc2)NC(=O)[C@H](CCCCN)NC(=O)[C@@H]2CCCN2C(=O)[C@H](Cc2c[nH]cn2)NC1=O [PADI4_3_H4(2), yRD(2)HYRHPKYCG] ({CH2CO}-[dY]RD[Orn(fluoroacetimidoyl)]HYRHPKYCG-NH2; thioether N-12) | M⁻¹ s⁻¹ | 2480
CC(C)C[C@@H]1NC(=O)[C@H](CCCCN)NC(=O)[C@H](CO)NC(=O)[C@H](CO)NC(=O)[C@H](Cc2ccc(O)cc2)NC(=O)[C@H](Cc2c[nH]cn2)NC(=O)[C@H](CCCNC(=N)CF)NC(=O)[C@H](CC(=O)O)NC(=O)[C@H](CC(C)C)NC(=O)[C@@H](Cc2ccc(O)cc2)NC(=O)CSC[C@@H](C(=O)NCC(N)=O)NC(=O)[C@H](Cc2ccc(O)cc2)NC1=O [cP4_15, yLD(2)HYSSKLYCG] ({CH2CO}-[dY]LD[Orn(fluoroacetimidoyl)]HYSSKLYCG-NH2; thioether N-12) | M⁻¹ s⁻¹ | 3550
